- target-under-test: C-Rel subunit;p52 subunit (Homo sapiens;Homo sapiens, UniProt Q04864;Q00653 1-285;4-332)
- Sequence 1: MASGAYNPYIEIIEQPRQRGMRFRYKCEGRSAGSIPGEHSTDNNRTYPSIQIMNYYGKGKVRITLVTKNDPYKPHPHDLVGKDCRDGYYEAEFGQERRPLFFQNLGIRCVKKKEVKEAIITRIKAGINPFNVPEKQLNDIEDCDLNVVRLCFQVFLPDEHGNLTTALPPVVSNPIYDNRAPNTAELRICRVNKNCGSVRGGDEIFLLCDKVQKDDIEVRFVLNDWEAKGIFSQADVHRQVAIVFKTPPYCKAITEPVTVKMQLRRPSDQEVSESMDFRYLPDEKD
- Sequence 2: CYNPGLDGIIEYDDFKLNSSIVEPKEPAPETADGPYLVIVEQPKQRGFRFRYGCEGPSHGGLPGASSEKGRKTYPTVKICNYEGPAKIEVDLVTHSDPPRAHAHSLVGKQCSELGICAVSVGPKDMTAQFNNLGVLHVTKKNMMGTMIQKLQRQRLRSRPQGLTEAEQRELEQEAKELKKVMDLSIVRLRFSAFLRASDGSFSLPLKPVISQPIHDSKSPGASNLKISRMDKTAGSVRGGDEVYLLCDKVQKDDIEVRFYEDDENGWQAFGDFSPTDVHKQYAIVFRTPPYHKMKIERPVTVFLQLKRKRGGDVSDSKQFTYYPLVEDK
- assay-explanation: protein binding microarray; high values mean tight binding
- stated-conditions: dsDNA, one strand shown
assay-readout: binding signal (z-score)
Answer format: numeric, z-score implied, no suffix.

Request: Give its binding signal value. Item: AAAGTCCCCCT
Result: 1.82

Request: Next sequence up: AAGAGCATCCT
Result: -1.15

Request: Next sequence up: AGAGGTGTCCT
Result: -0.658

Request: Next sequence up: GAATAACTCCT
Result: -0.791

Request: Next sequence up: GAATAGGTCCT
Result: -0.527

Request: Next sequence up: CAGAATTCCCC
Result: 2.61

Request: Next sequence up: CAATTGCTCCC
Result: -0.604

Request: Next sequence up: CGGTATGTCCT
Result: -0.489

Request: Next sequence up: CAAGGAGCCCC
Result: -0.176

Request: Next sequence up: AGGTGTCCCCC
Result: 1.02

Request: Next sequence up: CAAGAAACCCT
Result: -0.305

Request: Next sequence up: GGAATATCCCT
Result: 1.6

Request: Next sequence up: GAAGGAACCCT
Result: -0.694

Request: Next sequence up: AAAAGGATCCT
Result: -0.998

Request: Next sequence up: AAGTGGCCCCC
Result: 0.0509

Request: Next sequence up: AGGGGACTCCC
Result: 2.77

Request: Next sequence up: CAAGTTGTCCC
Result: 0.251

Request: Next sequence up: AGGATTTCCCT
Result: 1.67

Request: Next sequence up: GAGTATCCCCT
Result: 0.943

Request: Next sequence up: CAGGATCCCCT
Result: 0.975

Request: Next sequence up: CGAGTGACCCT
Result: -0.744

Request: Next sequence up: AAGGATACCCC
Result: 0.247

Request: Next sequence up: CAATAGCCCCT
Result: 0.555

Request: Next sequence up: GGATGCGTCCT
Result: -0.907

Request: Next sequence up: GAGATATCCCC
Result: 0.964

Request: Next sequence up: GAGTGCTTCCC
Result: 0.0743

Request: Next sequence up: AAGATAATCCT
Result: -0.848

Request: Next sequence up: AGGATAGCCCT
Result: -0.688

Request: Next sequence up: GGGAAGACCCT
Result: 1.03

Request: Next sequence up: GGGGTGTTCCT
Result: 0.791

Request: Next sequence up: GAGGTAGTCCC
Result: 0.318

Request: Next sequence up: GAGAGCGCCCT
Result: -0.822

Request: Next sequence up: CGATGCTCCCC
Result: -0.273

Request: Next sequence up: GGAGTAATCCC
Result: 0.0188

Request: Next sequence up: CGAAAGATCCC
Result: -0.147

Request: Next sequence up: CGGTGTCTCCC
Result: 0.354

Request: Next sequence up: GGAGTTCCCCT
Result: 3.5

Request: Next sequence up: GGGTAGGCCCC
Result: 0.593

Request: Next sequence up: AAGAACCCCCT
Result: 1.48

Request: Next sequence up: AAGAGGTTCCT
Result: -0.637

Request: Next sequence up: GAAAAGTCCCT
Result: 2.16

Request: Next sequence up: AAGGTGTCCCT
Result: 0.562

Sourced from paper PMC3218832
